- ASSAY_TARGET: Transforming acidic coiled-coil-containing protein 3 (Homo sapiens)
- ASSAY_OVERVIEW: inhibitors of ARNT PAS-B binding to TACC3 – biochemical, AlphaScreen, single concentration, primary screen (AID 623870);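 also: 0% = complete ARNT plus TACC3 wells and 100% = ARNT alone without TACC3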
- TEST_SETTINGS: AlphaScreen His-ARNT PAS-B/GST-TACC3 binding, luminescence; at 9.99 µM; hits give high values; TACC3 fragment carries E629A point mutation
Hit rate of the full screen: of about 390,000 compounds, about 2,600 (0.67%) were called active. Shown is part of a subset that was picked to be rich in actives.
MEASUREMENT_LABEL: inhibition (%)
Lab book: enter the figure in %, no units written.

Field: example entries. Status: answers known.
Cc1cccc(S(=O)(=O)N[C@H]2CC[C@@H](CCNS(=O)(=O)c3ccccc3F)O[C@H]2CO)c1 = 1.77
O=C(N[C@H]1CC[C@H](CCNS(=O)(=O)c2ccc(F)cc2)O[C@H]1CO)c1cccc(F)c1 = 3.52
Oc1c(CN2CCCC2)cc(COCc2ccccc2)c2cccnc12 = 64.5
CCCc1cc(=O)oc2c(C)c(O)c(CN3CCCCC3)cc12 = 0.049

Look at this compound and give its reported inhibition. Oc1c(CN2CCN(c3ccc(F)cc3)CC2)cc(Cl)c2cccnc12
73.2

// returns reported inhibition for input CC(=O)/C(=N\Nc1ccc(Cl)cc1Cl)Sc1cccc2cccnc12
61.1

Return reported inhibition; argument: CCCNC(=O)Nc1ccc2c(c1)C(=O)N(C)C[C@@H](OC)[C@@H](C)CN(Cc1ccccn1)[C@@H](C)CO2
-2.12
